The values you see were collected from the supplement of paper PMC7287046.

Catalogue of HSA synergy score values
System: SF539
Experiment: HSA synergy score (Combenefit); higher = more synergy
Details: exposure time: 72 h
Form: value (number only, do not type unit).

Past entries and their recorded results:
* CCC(=O)N1CCN(c2ccc(-n3c(=O)ccc4cnc5ccc(-c6cnc7ccccc7c6)cc5c43)cc2C(F)(F)F)CC1 [Torin1] + N#CC(c1ccnc(NCCc2cccnc2)n1)c1nc2ccccc2s1 [AS601245] | 11.4
* CCCCCCCCCCCC1=C(O)C(=O)C=C(O)C1=O [Embelin] + O=c1[nH]c2ccccc2n1C1CCN(Cc2ccc(-c3[nH]c4cc5ncnc5cc4nc3-c3ccccc3)cc2)CC1 [Akt inhibitor VIII] | 2.02
* CCCCCCCCCCCC1=C(O)C(=O)C=C(O)C1=O [Embelin] + N#CC(c1ccnc(NCCc2cccnc2)n1)c1nc2ccccc2s1 [AS601245] | 1.24

[Q] Missing value: HSA synergy score, SF539, entry CC(=O)O[C@@]12CO[C@@H]1C[C@H](O)[C@@]1(C)C(=O)[C@H](O)C3=C(C)[C@@H](OC(=O)[C@H](O)[C@@H](NC(=O)OC(C)(C)C)c4ccccc4)C[C@@](O)([C@@H](OC(=O)c4ccccc4)[C@H]21)C3(C)C [Docetaxel] + C#Cc1cccc(Nc2ncnc3cc(OCCOC)c(OCCOC)cc23)c1 [Erlotinib] . Fill in?
[A] 2.49

###

System: U87
Experiment: Bliss synergy score (Combenefit); higher = more synergy; extreme values may be limits of the assay
Settings: exposure time: 72 h
Bliss synergy score below 3 gives not met; Bliss synergy score at or above it gives met.

- Nc1ccn([C@@H]2O[C@H](CO)[C@@H](O)C2(F)F)c(=O)n1 [Gemcitabine] + CO[C@H]1C[C@@H]2CC[C@@H](C)[C@@](O)(O2)C(=O)C(=O)N2CCCC[C@H]2C(=O)O[C@H]([C@H](C)C[C@@H]2CC[C@@H](O)[C@H](OC)C2)CC(=O)[C@H](C)/C=C(\C)[C@@H](O)[C@@H](OC)C(=O)[C@H](C)C[C@H](C)/C=C/C=C/C=C/1C [Rapamycin]: not met
- CC(=O)O[C@@]12CO[C@@H]1C[C@H](O)[C@@]1(C)C(=O)[C@H](O)C3=C(C)[C@@H](OC(=O)[C@H](O)[C@@H](NC(=O)OC(C)(C)C)c4ccccc4)C[C@@](O)([C@@H](OC(=O)c4ccccc4)[C@H]21)C3(C)C [Docetaxel] + CCC(=O)N1CCN(c2ccc(-n3c(=O)ccc4cnc5ccc(-c6cnc7ccccc7c6)cc5c43)cc2C(F)(F)F)CC1 [Torin1]: met
- CC(=O)O[C@@]12CO[C@@H]1C[C@H](O)[C@@]1(C)C(=O)[C@H](O)C3=C(C)[C@@H](OC(=O)[C@H](O)[C@@H](NC(=O)OC(C)(C)C)c4ccccc4)C[C@@](O)([C@@H](OC(=O)c4ccccc4)[C@H]21)C3(C)C [Docetaxel] + CCCCCCCCCCCC1=C(O)C(=O)C=C(O)C1=O [Embelin]: not met

[Q] Check if Bliss synergy score >= 3 (inclusive). Item: CCC(=O)N1CCN(c2ccc(-n3c(=O)ccc4cnc5ccc(-c6cnc7ccccc7c6)cc5c43)cc2C(F)(F)F)CC1 [Torin1] + C#Cc1cccc(Nc2ncnc3cc(OCCOC)c(OCCOC)cc23)c1 [Erlotinib]
[A] not met

[Q] Check if Bliss synergy score >= 3 (inclusive). Item: O=c1[nH]c2ccccc2n1C1CCN(Cc2ccc(-c3[nH]c4cc5ncnc5cc4nc3-c3ccccc3)cc2)CC1 [Akt inhibitor VIII] + N#CC(c1ccnc(NCCc2cccnc2)n1)c1nc2ccccc2s1 [AS601245]
[A] met
